# credit: patent US5302399A

- protocolDetails: in vivo
- Parameters: species or system Male beagle dogs
- conditionContext: dog, po, 5 mg/kg
- From the text: Water was given ad libitum. Water was given ad libitum during the test period. In this test, alginic acid gel beads prepared using the low viscosity alginic acid gel beads (IL2, Kimizu Chemicals) were used.
measuredMetric: MRT at 12 h (h)
Give just the numeric value; h need not be written.

Input line: I am curious: what MRT at 12 h value has been reported for CC(C)NCC(O)COc1cccc2[nH]ccc12 (stereo not shown) ?
Output line: 1.98

----------
- protocolDetails: in vivo
- Set-up: species or system Male beagle dogs
- conditionContext: dog, po, 2.5 mg/kg
measuredMetric: MRT at 6 h (h)
Give just the numeric value; h need not be written.

Input line: I am curious: what MRT at 6 h value has been reported for CC(C)NCC(O)COc1cccc2[nH]ccc12 (stereo not shown) [Pindolol powder, pindolol] ?
Output line: 1.74
